Reported values of k, kinetic rate constant of S100A9 amyloid formation for individual entries
Target: S100A9 (Homo sapiens, UniProt P06702)
Construct: made in house; host or cells: E. coli
Sequence (P06702 whole entry): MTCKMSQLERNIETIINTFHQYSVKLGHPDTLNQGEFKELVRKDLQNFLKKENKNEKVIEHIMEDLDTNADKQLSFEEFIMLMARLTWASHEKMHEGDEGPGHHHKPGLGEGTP
Experiment: ThT fluorescence kinetics of S100A9 amyloid formation in the presence of compounds
Assay type: biochemical
Details: S100A9:compound 1:1; 75 μM S100A9, 20 µM ThT, PBS pH 7.4, 42 °C; isodesmic polymerization fit; triplicate
Non-standard residues stand in square brackets, D forms with d. Residues, ends and D or L forms follow the SMILES beside them. Dopa = N[C@@H](Cc1ccc(O)c(O)c1)C(=O)O
QUANTITY: k, kinetic rate constant of S100A9 amyloid formation

- COMPOUND: "O=C(CN1CCNCCNCCNCC1)N[C@@H](Cc1ccc(O)c(O)c1)C(=O)O [DOPA-cyclen]"
  EXPERIMENTAL SYSTEM: "S100A9 (Homo sapiens, UniProt P06702)"
  REPORTED VALUE: "62000 M⁻¹ s⁻¹"
- COMPOUND: "N[C@@H](Cc1ccc(O)c(O)c1)C(=O)N[C@@H](CC(=O)O)C(=O)N[C@@H](Cc1c[nH]cn1)C(=O)N[C@@H](Cc1ccc(O)c(O)c1)C(=O)O [DOPA-D-H-DOPA] (H-[Dopa]DH[Dopa]-OH)"
  EXPERIMENTAL SYSTEM: "S100A9 (Homo sapiens, UniProt P06702)"
  REPORTED VALUE: "60000 M⁻¹ s⁻¹"
- COMPOUND: "N[C@@H](Cc1ccc(O)c(O)c1)C(=O)N[C@@H](CC(=O)O)C(=O)N[C@@H](Cc1c[nH]cn1)C(=O)O [DOPA-D-H] (H-[Dopa]-Asp-His-OH)"
  EXPERIMENTAL SYSTEM: "S100A9 (Homo sapiens, UniProt P06702)"
  REPORTED VALUE: "63000 M⁻¹ s⁻¹"
- COMPOUND: "N[C@@H](Cc1ccc(O)c(O)c1)C(=O)N[C@@H](Cc1c[nH]cn1)C(=O)N[C@@H](Cc1c[nH]cn1)C(=O)N[C@@H](Cc1ccc(O)c(O)c1)C(=O)O [DOPA-H-H-DOPA] (H-[Dopa]HH[Dopa]-OH)"
  EXPERIMENTAL SYSTEM: "S100A9 (Homo sapiens, UniProt P06702)"
  REPORTED VALUE: "77000 M⁻¹ s⁻¹"
- COMPOUND: "O=C(O)CC[C@H](NC(=O)CN1CCNCCNCCNCC1)C(=O)N[C@@H](Cc1c[nH]cn1)C(=O)O [H-E-cyclen]"
  EXPERIMENTAL SYSTEM: "S100A9 (Homo sapiens, UniProt P06702)"
  REPORTED VALUE: "69000 M⁻¹ s⁻¹"

Data provenance is paper PMC8395260.
